experiment: Solubility in PBS in presence of 1% DMSO by LC/MS analysis; assay type: physicochemical; details: PBS with 1% DMSO
Measured Property: solubility
Note: a bare number is incomplete; add the unit.

Recorded solubility for O=c1sn(-c2cccc3ccccc23)c(=O)n1Cc1ccccc1 , please?
11 µg/mL

Try this molecule too: Cc1noc(C)c1-n1sc(=O)n(Cc2ccccc2)c1=O
144 µg/mL

---

molecular target: Sortase A (Staphylococcus aureus, UniProt Q9S446, DELTAN24); experiment: Inhibition of Staphylococcus aureus SrtA delta N24 mutant expressed in Escherichia coli BL21 (DE3) using Abz-LPATG-Dnp substrate incubated for 20 mins by FRET-based assay
Please provide measured pIC50 for the entries that follow.
Formally, pIC50 is defined as -log10 of the concentration c, with c in mol/L.

Request body: readout pIC50, system Sortase A (Staphylococcus aureus, UniProt Q9S446, DELTAN24), query CCn1sc(=O)n(Cc2ccc(C)cc2)c1=O . Return the value.
4.78

And O=c1sn(-c2cccc3ccccc23)c(=O)n1CCc1ccccc1 ?
6.22

Record: O=c1sn(C2CCCC2)c(=O)n1C1CCCCC1
4.99

Likewise for O=c1sn(-c2cccc3ccccc23)c(=O)n1Cc1ccccc1 ?
6.22

Query O=c1sn(Cc2ccccc2)c(=O)n1Cc1ccc(Cl)c(Cl)c1 next
5.54

Next up: O=c1sn(Cc2ccccc2)c(=O)n1Cc1ccccc1Cl
5.47

Ok, now O=c1sn(-c2cccc3ccccc23)c(=O)n1Cc1ccc(O)cc1
5.59

What do you get for O=c1sn(-c2cccc3ccccc23)c(=O)n1Cc1ccc(Cl)c(Cl)c1 ?
6.05

# iterate: Cn1c(=O)sn(-c2cccc3ccccc23)c1=O
6.10

Try the molecule O=c1sn(-c2cccc3ccccc23)c(=O)n1Cc1cccc(O)c1
5.80

Note, next up: O=c1sn(Cc2ccccc2)c(=O)n1Cc1ccccc1
5.15

Same thing, different molecule: Cc1noc(C)c1-n1sc(=O)n(Cc2ccc(Cl)cc2)c1=O
6.00

Could you do the same for CCn1sc(=O)n(CCc2ccccc2)c1=O , please?
4.79

Next up: O=c1sn(-c2cccc3c2CCC3)c(=O)n1Cc1ccccc1
5.36

Item: Cc1noc(C)c1-n1sc(=O)n(C(C)C)c1=O
4.90

Consider next the molecule CCCCn1sc(=O)n(CCCC)c1=O in the same way.
4.36

And then Cn1c(=O)sn(Cc2ccccc2)c1=O , what is it?
5.46

What do you get for Cc1noc(C)c1-n1sc(=O)n(Cc2ccccc2Cl)c1=O ?
6.22

Another: O=c1sn(-c2cccc3ccccc23)c(=O)n1Cc1ccc(F)cc1
5.39

Same question for O=c1sn(-c2cccc3c2OCO3)c(=O)n1Cc1ccccc1 please.
5.47

And the next one, COc1ccc(Cn2c(=O)sn(-c3c(C)noc3C)c2=O)cc1 ?
5.92

Follow-up entry: O=c1sn(CCc2ccccc2)c(=O)n1Cc1ccccc1
5.00

Next entry: O=c1sn(-c2cccc3ccccc23)c(=O)n1Cc1ccccc1O
5.89

Check CCn1sc(=O)n(Cc2ccc(Cl)cc2)c1=O too.
5.06

Same thing, different molecule: Cc1ccc(Cn2c(=O)sn(-c3c(C)noc3C)c2=O)cc1
5.96

For O=c1sn(-c2cccc3c2CCCC3)c(=O)n1Cc1ccccc1 then?
5.22

Next record, please: O=c1sn(-c2cccc3ccccc23)c(=O)n1Cc1ccc(Cl)cc1
6.15

What do we get for Cc1ccc(Cn2c(=O)sn(Cc3ccccc3)c2=O)cc1 ?
5.29

How about this molecule: Cc1noc(C)c1-n1sc(=O)n(Cc2ccc(Cl)c(Cl)c2)c1=O
6.05

Please answer likewise for CCCCn1c(=O)sn(-c2c(C)noc2C)c1=O
5.96

// next record CCCCn1c(=O)sn(-c2cccc3ccccc23)c1=O
6.05

Also need Cc1ccc(Cn2c(=O)sn(-c3cccc4ccccc34)c2=O)cc1 , thanks.
5.92

Try this molecule next: O=c1sn(Cc2ccccc2)c(=O)n1CCCl
5.70

Field entry: CCCCn1c(=O)sn(Cc2ccccc2)c1=O
5.08

Next molecule up: CCn1c(=O)sn(-c2cccc3ccccc23)c1=O
6.15

Try the molecule Cc1noc(C)c1-n1sc(=O)n(Cc2ccccc2)c1=O
6.10

Then CCn1c(=O)sn(-c2c(C)noc2C)c1=O ?
5.82
